molecular target: T1, cynomolgus CD3 (cynomolgus (Macaca fascicularis), UniProt Q95LI5 22-198; Q95LI8 22-171; Q95LI7 23-181); experiment: FACS on 293F-cynoCD3mix cells; note: test concentration or dose not given here
T1 construct: whole, on cells; composition of the 'mix' not defined; also called cynoCD3
T1 sequence (Q95LI5 22-198, chain 1 of 3): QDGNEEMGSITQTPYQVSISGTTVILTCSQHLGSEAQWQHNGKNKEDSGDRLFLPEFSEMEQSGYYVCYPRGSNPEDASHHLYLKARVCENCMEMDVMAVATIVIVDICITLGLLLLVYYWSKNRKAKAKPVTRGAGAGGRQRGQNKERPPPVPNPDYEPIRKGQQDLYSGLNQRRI
T1 sequence (Q95LI8 22-171, chain 2 of 3): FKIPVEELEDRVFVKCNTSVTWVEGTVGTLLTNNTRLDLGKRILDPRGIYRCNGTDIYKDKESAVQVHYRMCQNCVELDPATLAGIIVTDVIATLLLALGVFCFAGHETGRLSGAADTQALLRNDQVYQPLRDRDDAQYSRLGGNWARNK
T1 sequence (Q95LI7 23-181, chain 3 of 3): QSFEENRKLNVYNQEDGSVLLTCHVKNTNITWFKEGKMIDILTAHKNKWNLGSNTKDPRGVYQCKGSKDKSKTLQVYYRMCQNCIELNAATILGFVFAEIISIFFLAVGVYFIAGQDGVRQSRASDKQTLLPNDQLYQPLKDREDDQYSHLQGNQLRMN
In this section, each of the binders is paired with its reported FACS MFI.
The answer is to be given in MFI; state only the numeric part.

Data request: May I ask what FACS MFI has been recorded for 133B4C7 (antibody, V domains shown, mouse monoclonal (hybridoma) antibody) VH: QVQLQQPGTELVKPGASVKLSCKASGYTFTSYWMHWVKQRPGQGLEWIGNINPSNGDTNFNEKFKSKATLTVDKSSSTAYMQLSSLTSEDSAVYYCARDRSSQYYFDYWGQGTTLTVSS VL: DIVMSQSPSSLAVSAGEKVTMSCNSSQSLLNSRTRKNYLAWYQQKPGQSPKLLIYWASTRESGVPDRFTGSGSGTDFTLTISSVQAEDLAVYYCKQSYTLRTFGGGTKLEIK ?
Data returned: 1780

Data request: May I ask what FACS MFI has been recorded for 147C6F3 (antibody, V domains shown, mouse monoclonal (hybridoma) antibody) VH: QVQLQQPGTELVKPGASVKLSCKASGYTFDSYWMHWVKQRPGQGLEWIGNLNPSNGEINYNEKFKHKATLTVDKSSSTAYMQLSSLTSEDSAVYYCSRDRSSQYYFDYWGQGTTLTVSS VL: DIVMSQSPSSLAVSAGEKVTLSCKSSQSLLNSRTRKNYLAWYQQKSGQSPKLLMYWASTRESGVPDRFTGSGSGTDFTLTITNVQAEDLAVYYCKQSYILRTFGGGTKLEIK ?
Data returned: 2230

Data request: May I ask what FACS MFI has been recorded for 124E3D6 (antibody, V domains shown, mouse monoclonal (hybridoma) antibody) VH: QVQLQQPGTELVKPGASVKLSCKASGYTFTSYWMHWVKQRPGQGLEWIGNINPSNGDTNYNEKFKSKATLTVDKSSSTAYMQLSSLTSEDSAVYYCARDRSSQYYFDYWGQGTTLTVSS VL: DIVMSQSPSSLAVSAGEKVTMSCKSSQSLLNSRTRKNYLAWYQQKPGQSPKLLIYWASTRESGVPDRFTGSGSGTDFTLTISSVQAEDLAVYYCKQSYNLRTFGGGTKLEIK ?
Data returned: 400

Data request: May I ask what FACS MFI has been recorded for 140D2B10 (antibody, V domains shown, mouse monoclonal (hybridoma) antibody) VH: QVQLQQPGTELVKPGASVKLSCKASGYTFTSYWMHWVKQRPGQGLEWIGNINPSNGESNYNEKFKSKATLTVDKSSSTAYMQLSSLTSEDYAVYYCARDRSSQYYFDYWGQGTTLTVSS VL: DIVMSQSPSSLAVSAGEKVTMSCKSSQSLLNSRTRKNYLAWYQQKPGQSPKLLIYWASTRESGVPDRFTGSGSGTDFTLTISSVQAEDLAVYYCKQSYTLRTFGGGTKLEIK ?
Data returned: 2040
